This section presents binders with their documented OD450 nm values.
Experimental Target: HRgpA-6H (Porphyromonas gingivalis) (UniProt P28784)
Assay Info: ELISA, FASEBA Fab supernatant on coated HRgpA-6H
Reply with just the number.

Observe how each entry below is paired with its result.
1. KB001 mouse Fab variant VL L55R/S51G (Fab, V domains shown) VH: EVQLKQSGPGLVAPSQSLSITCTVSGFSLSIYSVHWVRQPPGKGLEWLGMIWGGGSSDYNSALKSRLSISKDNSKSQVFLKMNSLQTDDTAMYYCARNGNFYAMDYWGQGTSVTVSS VL: QIVLTQSPAIMSASLGERVTMTCTASSSVSSSFLHWYQQKPGSSPQLWIYGTSNRASGVPARFSGSGSGTSYSLTISSMEAEDAATYYCHQYHHSPYIYTFGGGTKLEIK ... 0.748
2. KB001 mouse Fab variant VL S95H (Fab, V domains shown) VH: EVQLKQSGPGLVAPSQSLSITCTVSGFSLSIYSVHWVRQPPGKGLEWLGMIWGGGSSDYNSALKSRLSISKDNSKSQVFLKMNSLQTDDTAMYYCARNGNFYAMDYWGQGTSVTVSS VL: QIVLTQSPAIMSASLGERVTMTCTASSSVSSSFLHWYQQKPGSSPQLWIYSTSNLASGVPARFSGSGSGTSYSLTISSMEAEDAATYYCHQYHHHPYIYTFGGGTKLEIK ... 0.8

// moving on: another record for OD450 nm
Data request: Item KB001 mouse Fab variant VL S95F (Fab, V domains shown) VH: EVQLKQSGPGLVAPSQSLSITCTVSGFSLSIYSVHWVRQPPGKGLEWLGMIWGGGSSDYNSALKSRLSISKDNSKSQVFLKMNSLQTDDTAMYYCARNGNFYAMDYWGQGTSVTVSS VL: QIVLTQSPAIMSASLGERVTMTCTASSSVSSSFLHWYQQKPGSSPQLWIYSTSNLASGVPARFSGSGSGTSYSLTISSMEAEDAATYYCHQYHHFPYIYTFGGGTKLEIK has what recorded OD450 nm?
Data returned: 0.837
